Tested on: MS2 coat protein
assay_details: apparent KD of MS2 coat protein; designed switch direction (-1 OFF switch, 1 ON switch): -1; higher = weaker reporter binding
run_parameters: Eterna round: R95; input ligand: microRNA oligo, concentration not stated
Classification field: rule met = apparent KD of MS2 coat protein at or over 30 nM; rule not met = apparent KD of MS2 coat protein under 30 nM.

Worked examples follow.
INSERT INTO assay_data (residues, assay_target, category) VALUES
  ('UUUUAACAUGAGGAUCACCCAUGUGAGGAUAUCGAAAUUUAUAUUAAUAUUAUUAUUUCGAGAAGGCACAUUUU [JMF 41] (puzzle: Exclusion 1)', 'MS2 coat protein', 'rule met'),
  ('AGUAGGUCUACCUUGGUGGAUCUGCAUUUAAGCAGGUGUACAUGAGGAUCACCCAUGUCCUCAUUUGCUCGUCUUAU [JL turnoff v2 99.30] (puzzle: Sensor v3, turn-off variant 2)', 'MS2 coat protein', 'rule met');

Reported apparent KD of MS2 coat protein at or above 30 nM? ACCUCUAUCUAGGAUAUUGGAACCCGGUUAAAACAAGAAGGAGAUACAUGAGGAUCACCCAUGUUAACGAUGGA [Ereseninso] (puzzle: Exclusion 6)
rule not met

Reported apparent KD of MS2 coat protein at or above 30 nM? GUCCUCGUGGCGCCUAAACACAUGAGGAUCACCCAUGUACAGGCUUUUUGCCGUCUUAUAAUAAAACCGAGGAUACG [Zaveonqu] (puzzle: Sensor v3, turn-off variant 1)
rule met
